The reported numbers originate from patent US20240391928A1.

test_summary: Pharmacokinetic analysis in C57BL/6 mice
measurement_conditions: read-out: peak concentration (Cmax) in brain; IP 5 mg/kg; brain
outcome_measure: Cmax
Don't forget the unit after the number, please.

Query :: Which measured Cmax value corresponds to COc1ccc(C(=O)c2c(C(=O)NCCCN(C)C)oc3ccc(Cl)cc3c2=O)cc1OC [Example N8279] ?
Result :: 0.259 µM

---

tgt: hGHSR1a^WT (Homo sapiens)
Sequence (Q92847 whole entry): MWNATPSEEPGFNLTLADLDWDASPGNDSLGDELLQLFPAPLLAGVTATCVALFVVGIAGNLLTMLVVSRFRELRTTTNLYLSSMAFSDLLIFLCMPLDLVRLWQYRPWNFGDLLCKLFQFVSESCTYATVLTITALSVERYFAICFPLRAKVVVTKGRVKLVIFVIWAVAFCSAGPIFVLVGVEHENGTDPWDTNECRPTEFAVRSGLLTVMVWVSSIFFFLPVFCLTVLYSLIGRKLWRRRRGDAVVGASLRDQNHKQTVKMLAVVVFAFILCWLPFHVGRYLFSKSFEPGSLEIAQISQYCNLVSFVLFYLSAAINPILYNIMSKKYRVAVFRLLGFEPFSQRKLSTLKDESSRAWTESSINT
test_summary: Gαq-dependent intracellular Ca2+ mobilization (iCa2+, miAeq)
Assay type: cell-based
Parameters: HEK293/T (transient); HEK293S Gαq knockout (transient, NanoBiT Gαq)
measurement_conditions: secondary assay of HTS hits; normalized to L585
Please note: Calcium signaling ECmax (%) exactly at 60% is Criterion not met. Only values below 60% get Criterion met.

Query :: Hello, I'm reviewing records and need to know if Calcium signaling ECmax (%) of CCOc1ccc(C2c3c(oc4ccc(C)cc4c3=O)C(=O)N2CCCN(C)C)cc1 (stereo not shown) is below 60%. Could you check?
Result :: Criterion not met

Query :: Hello, I'm reviewing records and need to know if Calcium signaling ECmax (%) of CC(C)c1ccc(C2c3c(oc4ccc(Cl)cc4c3=O)C(=O)N2CCCN2CCOCC2)cc1 (stereo not shown) is below 60%. Could you check?
Result :: Criterion not met

Query :: Hello, I'm reviewing records and need to know if Calcium signaling ECmax (%) of COc1ccc(C2c3c(oc4ccc(C)cc4c3=O)C(=O)N2CCCN2CCOCC2)cc1OC (stereo not shown) is below 60%. Could you check?
Result :: Criterion not met

Query :: Hello, I'm reviewing records and need to know if Calcium signaling ECmax (%) of CCOc1cccc(C2c3c(oc4ccc(F)cc4c3=O)C(=O)N2CCOC)c1 (stereo not shown) is below 60%. Could you check?
Result :: Criterion not met

Query :: Hello, I'm reviewing records and need to know if Calcium signaling ECmax (%) of COc1ccc(OC)c(C2c3c(oc4ccc(C)cc4c3=O)C(=O)N2CCCN(C)C)c1 (stereo not shown) is below 60%. Could you check?
Result :: Criterion not met

Query :: Hello, I'm reviewing records and need to know if Calcium signaling ECmax (%) of COc1cccc(C2c3c(oc4ccccc4c3=O)C(=O)N2CCCN2CCOCC2)c1 (stereo not shown) [MLS000115599] is below 60%. Could you check?
Result :: Criterion not met

Query :: Hello, I'm reviewing records and need to know if Calcium signaling ECmax (%) of COc1cccc(C2c3c(oc4ccccc4c3=O)C(=O)N2CCCN2CCOCC2)c1 (stereo not shown) [MLS002585710] is below 60%. Could you check?
Result :: Criterion met

Query :: Hello, I'm reviewing records and need to know if Calcium signaling ECmax (%) of C[C@@H](O)CNC(C)(C)CC(=O)N[C@@H]1CCc2ccccc2N(Cc2ccc(-c3ccccc3-c3nn[nH]n3)cc2)C1=O [Example L626.585, reference compound] is below 60%. Could you check?
Result :: Criterion not met

Query :: Hello, I'm reviewing records and need to know if Calcium signaling ECmax (%) of O=C1c2oc3ccccc3c(=O)c2C(c2ccccc2F)N1Cc1ccc2c(c1)OCO2 (stereo not shown) is below 60%. Could you check?
Result :: Criterion met

Query :: Hello, I'm reviewing records and need to know if Calcium signaling ECmax (%) of Cc1ccc2oc3c(c(=O)c2c1)C(c1cccc(Cl)c1)N(CCCN1CCOCC1)C3=O (stereo not shown) is below 60%. Could you check?
Result :: Criterion met

Query :: Hello, I'm reviewing records and need to know if Calcium signaling ECmax (%) of CSc1ccc(C2c3c(oc4ccccc4c3=O)C(=O)N2CCCN2CCOCC2)cc1 (stereo not shown) is below 60%. Could you check?
Result :: Criterion met

Query :: Hello, I'm reviewing records and need to know if Calcium signaling ECmax (%) of Cc1ccc2oc3c(c(=O)c2c1)C(c1ccccc1F)N(CCCN(C)C)C3=O (stereo not shown) is below 60%. Could you check?
Result :: Criterion not met

Query :: Hello, I'm reviewing records and need to know if Calcium signaling ECmax (%) of CCOc1ccc(C2c3c(oc4ccc(C)cc4c3=O)C(=O)N2CCCN2CCOCC2)cc1 (stereo not shown) is below 60%. Could you check?
Result :: Criterion not met

Query :: Hello, I'm reviewing records and need to know if Calcium signaling ECmax (%) of CCCOc1cccc(C2c3c(oc4cc(C)c(C)cc4c3=O)C(=O)N2CCCN2CCOCC2)c1 (stereo not shown) is below 60%. Could you check?
Result :: Criterion met

Query :: Hello, I'm reviewing records and need to know if Calcium signaling ECmax (%) of Cc1ccc2oc3c(c(=O)c2c1)C(c1ccccc1F)N(CCCN1CCOCC1)C3=O (stereo not shown) is below 60%. Could you check?
Result :: Criterion met

---

Answer each item with its documented Calcium signaling ECmax (%).
tgt: hGHSR1a^WT (Homo sapiens)
test_summary: Gαq-dependent intracellular Ca2+ mobilization (iCa2+, miAeq)
Type: cell-based
Design: HEK293/T (transient); HEK293S Gαq knockout (transient, NanoBiT Gαq)
measurement_conditions: secondary assay of HTS hits; normalized to L585
Source text: Gαq-Dependent Intracellular Ca^2+ Mobilization. […] Cells were split into and seeded into 10 cm dishes without antibiotic selection and grown to confluency overnight. […] Luminescence was read without delay and for 10 seconds per well. […] The max ligand-induced response (Ca^2+ mobilization: net-miAeq) over 10 seconds was normalized by dividing the ligand-induced luminescence counts (L-miAeq) by the ligand-induced luminescence counts (L-MiAeq) plus the luminescence measured upon cell lysis (Lysis-miAeq). […]

Reference set (7 entries):
>>> print(df.to_string())
                                   compound  value_reported
0  CCOc1ccc(C2c3c(oc4ccc(C)cc4c3=O)C(=O)N2CCCN(C)C)cc1OC (centres unmarked) [NCGC00141956]            105%
1  CCOc1ccc(C2c3c(oc4ccccc4c3=O)C(=O)N2CCCN2CCOCC2)cc1OCC (centres unmarked) [MLS000115604]             51%
2  Cc1ccc2oc3c(c(=O)c2c1)C(c1ccc(O)cc1)N(CCCN(C)C)C3=O (centres unmarked) [NCGC00101937]            112%
3  CC(C)CCOc1cccc(C2c3c(oc4ccccc4c3=O)C(=O)N2CCCN2CCOCC2)c1 (centres unmarked) [MLS000115603]             48%
4  CCCOc1ccc(C2c3c(oc4ccccc4c3=O)C(=O)N2c2ccc(C)cn2)cc1OCC (centres unmarked) [NCGC00101673]            115%
5  Cc1ccc2oc3c(c(=O)c2c1)C(c1ccc([N+](=O)[O-])cc1)N(CCCN1CCOCC1)C3=O (centres unmarked) [NCGC00119776]            125%
6  CCCCOCCCn1c(N)c(C(=O)OC(C)COC)c2nc3ccccc3nc21 (centres unmarked) [MLS000036469]             50%

Moving on to the next compound.
Query :: Which measured Calcium signaling ECmax (%) value corresponds to CCCOc1ccc(C2c3c(oc4cc(C)c(C)cc4c3=O)C(=O)N2CCCN(C)C)cc1OCC (centres unmarked) [MLS000115621] ?
Result :: 126%

---

tgt: hGHSR1a^WT (Homo sapiens)
test_summary: Gαq-dependent intracellular Ca2+ mobilization (iCa2+, miAeq)
measurement_conditions: secondary assay of HTS hits; read-out: Calcium signaling EC50
Answer each item with its documented EC50.
Answers are plain numbers, in µM.

Would you be so kind as to report EC50 for each listed record?
1. C[C@@H](O)CNC(C)(C)CC(=O)N[C@@H]1CCc2ccccc2N(Cc2ccc(-c3ccccc3-c3nn[nH]n3)cc2)C1=O [Example L626.585, reference compound]
2. CCOc1ccc(C2c3c(oc4ccc(C)cc4c3=O)C(=O)N2CCCN2CCOCC2)cc1 (centres unmarked) [NCGC00141056]
3. CCOc1ccc(C2c3c(oc4ccccc4c3=O)C(=O)N2CCCN2CCOCC2)cc1OCC (centres unmarked) [MLS000115604]
4. Cc1ccc2oc3c(c(=O)c2c1)C(c1ccccc1F)N(CCCN(C)C)C3=O (centres unmarked) [NCGC00101939]
5. COc1ccc(C2c3c(oc4ccc(C)cc4c3=O)C(=O)N2CCCN2CCOCC2)cc1OC (centres unmarked) [NCGC00141954]
6. CCCOc1ccc(C2c3c(oc4cc(C)c(C)cc4c3=O)C(=O)N2CCCN(C)C)cc1OCC (centres unmarked) [MLS000115621]
7. COc1ccc(OC)c(C2c3c(oc4ccc(C)cc4c3=O)C(=O)N2CCCN(C)C)c1 (centres unmarked) [NCGC00136184]
8. CCOc1ccc(C2c3c(oc4ccc(C)cc4c3=O)C(=O)N2CCCN(C)C)cc1 (centres unmarked) [NCGC00141058]

Result ::
1: 0.0146; 2: 0.938; 3: 0.00804; 4: 4.9; 5: 0.714; 6: 2.38; 7: 13.1; 8: 1.29
